Provide the reported Papp A→B at 120 min, 10 µM of each item.
test: Bidirectional permeability assay (Caco-2 cells); type: in vitro ADME; conditions: human, absorptive direction (A2B), 10 μM in FaSSIF buffer, 120 minutes at 37° C.
Numbers only, in ×10⁻⁶ cm/s.

Worked set:
[
  {
    "COMPOUND": "CCCCC1(CC)CN(c2ccc(F)cc2)c2cc(SC)c(CSCC(=O)O)cc2S(=O)(=O)C1 (single isomer, unassigned) [7, enantiomer 1]",
    "Papp A→B at 120 min, 10 µM [×10⁻⁶ cm/s]": 24.3
  },
  {
    "COMPOUND": "CCCCC1(C)CN(c2ccccc2)c2cc(SC)c(CSCC(=O)O)cc2S(=O)(=O)C1 (single isomer, unassigned) [5, enantiomer 1]",
    "Papp A→B at 120 min, 10 µM [×10⁻⁶ cm/s]": 29.3
  }
]

Looking for the measured Papp A→B at 120 min, 10 µM of CCCCC1(CC)CN(c2ccccc2)c2cc(SC)c(CSCC(=O)O)cc2S(=O)(=O)C1 (single isomer, unassigned) [2, enantiomer 1] , can you help? 7.5

---

target: hLBAT (Homo sapiens); construct: kept under Geneticin selection; assay: LBAT (h/m) assay: 3H-taurocholic acid uptake in human LBAT-overexpressing cells; settings: 0.3 μM 3H-taurocholic acid + 7.5 μM cold taurocholic acid, 20 minutes at 37° C.
Sequence (Q14973 whole entry): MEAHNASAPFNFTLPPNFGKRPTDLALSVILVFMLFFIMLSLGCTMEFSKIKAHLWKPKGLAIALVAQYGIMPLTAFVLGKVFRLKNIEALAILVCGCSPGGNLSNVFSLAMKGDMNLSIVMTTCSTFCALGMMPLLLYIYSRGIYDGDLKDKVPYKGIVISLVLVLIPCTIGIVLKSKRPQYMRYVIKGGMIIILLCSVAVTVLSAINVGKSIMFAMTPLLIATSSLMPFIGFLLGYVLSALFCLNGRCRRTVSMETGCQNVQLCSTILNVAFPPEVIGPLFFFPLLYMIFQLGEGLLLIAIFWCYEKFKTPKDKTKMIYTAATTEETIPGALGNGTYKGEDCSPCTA
QUANTITY MEASURED: IC50

Worked cases, answers included:
[
  {
    "COMPOUND": "CCCCC1(C)CN(c2ccccc2)c2cc(OC)c(CSCC(=O)O)cc2S(=O)(=O)N1 (stereo not shown)",
    "TESTED TARGET": "hLBAT (Homo sapiens)",
    "IC50": "> 1 µM"
  },
  {
    "COMPOUND": "CCCCC1(CC)CN(c2ccccc2)c2cc(S(C)(=O)=O)c(CSCC(=O)O)cc2S(=O)(=O)N1 (racemic) [Example 47]",
    "TESTED TARGET": "hLBAT (Homo sapiens)",
    "IC50": "> 1 µM"
  },
  {
    "COMPOUND": "CCCCC1CN(c2ccccc2)c2cc(OC)c(CSCC(=O)O)cc2S(=O)(=O)N1C (single isomer, unassigned) [36, enantiomer 1]",
    "TESTED TARGET": "hLBAT (Homo sapiens)",
    "IC50": "> 10 µM"
  },
  {
    "COMPOUND": "CCCCC1(C)CN(c2ccccc2)c2cc(SC)c(CSCC(=O)O)cc2S(=O)(=O)N1 (stereo not shown)",
    "TESTED TARGET": "hLBAT (Homo sapiens)",
    "IC50": "> 1 µM"
  },
  {
    "COMPOUND": "CCCCC1(CCCC)CN(c2ccc(F)cc2)c2cc(OC)c(CSCC(=O)O)cc2S(=O)(=O)C1",
    "TESTED TARGET": "hLBAT (Homo sapiens)",
    "IC50": "> 3.33 µM"
  },
  {
    "COMPOUND": "CCCCC1(CC)CN(c2ccccc2)c2cc(SC)c(CSCC(=O)O)cc2S(=O)(=O)N1 (racemic) [Example 9]",
    "TESTED TARGET": "hLBAT (Homo sapiens)",
    "IC50": "> 3.33 µM"
  }
]

Could you share which IC50 value was measured for CCCCC1CN(c2ccccc2)c2cc(OC)c(CSC(C)(C)C(=O)O)cc2S(=O)(=O)N1C (racemic) [Example 37] ? 0.021 µM
